- System: Bacillus subtilis
- TEST DESCRIPTION: Antibacterial activity against Bacillus subtilis after 2 days by agar plate dilution method
- Assay type: functional
- CONDITION DETAILS: 48 h

{"MOLECULE": "C=C(C)[C@@H]1C[C@@H](OC(=O)C=C(C)C)[C@@]2(C1)C(C)=CC(=O)[C@H](O)[C@H]2C", "MEASURED TARGET": "Bacillus subtilis", "UNIT ANNOTATION": "µg/mL", "MIC": 250}
{"MOLECULE": "C=C(C)[C@@H]1C[C@@H](O)[C@@]2(C1)C(C)=CC(=O)[C@H](O)[C@H]2C", "MEASURED TARGET": "Bacillus subtilis", "UNIT ANNOTATION": "µg/mL", "MIC": 500}
{"MOLECULE": "C=C(C)[C@@H]1C[C@@H](OC(=O)C(C)C)[C@@]2(C1)C(C)=CC(=O)[C@H](O)[C@H]2C", "MEASURED TARGET": "Bacillus subtilis", "UNIT ANNOTATION": "µg/mL", "MIC": 250}
{"MOLECULE": "C=C(C)[C@@H]1C[C@@H](OC(=O)/C(C)=C/C)[C@@]2(C1)C(C)=CC(=O)[C@H](O)[C@H]2C", "MEASURED TARGET": "Bacillus subtilis", "UNIT ANNOTATION": "µg/mL", "MIC": 250}
{"MOLECULE": "C=C(C)[C@@H]1CC[C@@]2(C1)C(C)=CC(=O)C[C@H]2C [SOLAVETIVONE]", "MEASURED TARGET": "Bacillus subtilis", "UNIT ANNOTATION": "µg/mL", "MIC": 100}

---

- Tested on: Staphylococcus aureus
- TEST DESCRIPTION: Antibacterial activity against Staphylococcus aureus after 2 days by agar plate dilution method
- Assay type: functional
- CONDITION DETAILS: 48 h
Consider the following compounds and their measured MIC readings.

{"CHEM SMILES": "C=C(C)[C@@H]1C[C@@H](OC(=O)C=C(C)C)[C@@]2(C1)C(C)=CC(=O)[C@H](O)[C@H]2C", "MIC / µg/mL": 100}
{"CHEM SMILES": "C=C(C)[C@@H]1C[C@@H](OC(=O)C(C)C)[C@@]2(C1)C(C)=CC(=O)[C@H](O)[C@H]2C", "MIC / µg/mL": 250}
{"CHEM SMILES": "C=C(C)[C@@H]1C[C@@H](OC(=O)/C(C)=C/C)[C@@]2(C1)C(C)=CC(=O)[C@H](O)[C@H]2C", "MIC / µg/mL": 100}
{"CHEM SMILES": "C=C(C)[C@@H]1CC[C@@]2(C1)C(C)=CC(=O)C[C@H]2C", "MIC / µg/mL": 100}
{"CHEM SMILES": "C=C(C)[C@@H]1C[C@@H](O)[C@@]2(C1)C(C)=CC(=O)[C@H](O)[C@H]2C", "MIC / µg/mL": 500}
